The measurements presented in this section are drawn from PubChem BioAssay (NCI).

# Test system: KM12 colon
# TEST SUMMARY: NCI-60 one-dose screen, 48 h (100 = growth as untreated, 0 = no growth, -100 = all killed)
# REPORTED CONDITIONS: 10 µM
Compounds without any hit were thinned out: in the full panel of roughly 83,000, 20% have a hit. Where a SMILES comes first, the peptide text is derived from it. Bridges are numbered along the chain shown (N, C = ends). [ ]: non-standard residue; d: D form. The star is where a group is joined. ξ: configuration not given here. ξNMePhe(4-NMe2) = CNC(Cc1ccc(N(C)C)cc1)C(=O)O; Picolinoyl(3-OH) = O=C(c1ncccc1O)*; ξPip(4-oxo) = O=C1CCNC(C(=O)O)C1; Phg = N[CH](C(=O)O)c1ccccc1; Abu = CC[CH](N)C(=O)O
Listed next: entries and their corresponding growth.
Reply numerically in %, unit not repeated.

- COMPOUND: "O=C(Cc1nc2ccc([N+](=O)[O-])cc2nc1CC(=O)c1ccccc1)c1ccccc1"
  TARGET OR SYSTEM: "KM12 colon"
  VALUE UNITS: "%"
  growth: 39.4
- COMPOUND: "CC(=O)NC(N)=S"
  TARGET OR SYSTEM: "KM12 colon"
  VALUE UNITS: "%"
  growth: 107
- COMPOUND: "CC(=Nc1ccccc1)C1=C(O)C(Cc2cccc(F)c2)NC1=O (configuration not stated)"
  TARGET OR SYSTEM: "KM12 colon"
  VALUE UNITS: "%"
  growth: -3.04

Please give the documented growth of O=C(O)C(Cc1ccccc1)C(=O)O
107

Please give the documented growth of CCN=c1cc2sc3cc(NCC)c(C)cc3nc-2cc1C
-1.68

Please give the documented growth of CCC1NC(=O)C(NC(=O)c2ncccc2O)C(C)OC(=O)C(c2ccccc2)NC(=O)C2CC(=O)CCN2C(=O)C(Cc2ccc(N(C)C)cc2)N(C)C(=O)C2CCCN2C1=O (configuration not stated) (tested in a mixture with another compound) ({Picolinoyl(3-OH)}-T[Abu]P[ξNMePhe(4-NMe2)][ξPip(4-oxo)][Phg]; ester 1-C; configuration not given here)
74.9

Please give the documented growth of CCOC(=O)c1cc(/C=C/c2ccc(Cl)cc2Cl)on1
-29.7

----------
Listed next: entries and their corresponding growth.
# Tested on: HOP-62 NSCLC
# TEST SUMMARY: NCI-60 one-dose screen, 48 h (100 = growth as untreated, 0 = no growth, -100 = all killed)
# REPORTED CONDITIONS: 10 µM
# Description: Growth inhibition of the HOP-62 human Non-Small Cell Lung tumor cell line is measured as a screen for anti-cancer activity. Cells are grown in 96 well plates and exposed to the test compound for 48 hours. Compounds are tested at a single concentration, which is 10^-5 M for most compounds. The reported endpoint is percent growth (GI% or GIPRCNT), where numbers from 0 - 100% represent growth inhibition, and numbers from -100% - 0 represent cell death. […]
The panel holds about 83,000 compounds, 20% with a hit somewhere; the sample as a whole holds those more often.
Reply numerically in %, unit not repeated.

Please give the documented growth of CC(CC(=O)c1ccccc1)c1ccccc1 (stereo not given)
119

----------
# Tested on: HCT-116 colon
# TEST SUMMARY: NCI-60 one-dose screen, 48 h (100 = growth as untreated, 0 = no growth, -100 = all killed)
# REPORTED CONDITIONS: 10 µM
Compounds without any hit were thinned out: in the full panel of roughly 83,000, 20% have a hit. The source made the active and inactive calls. The calls were made as follows: active = growth percent below 10; inactive = the rest.
Listed next: entries and their corresponding growth.

# count of solved cases: 3
- MOLECULE: "Cc1nc2ccccc2c(C(=O)O)c1O"
  growth: "88.3% (inactive)"
- MOLECULE: "NC(=O)c1ccc(N=C(N)N=C(N)N)cc1"
  growth: "105% (inactive)"
- MOLECULE: "COc1ccc(Oc2c(I)cc(CC(NC(C)=O)C(=O)O)cc2I)cc1 (stereo not given)"
  growth: "79.6% (inactive)"

Print HCT-116 colon growth for Cc1cc(=O)[nH]c(NN=C2CCCC2)n1 .
107% (inactive)

Print HCT-116 colon growth for CC(=O)OCCC(C)CCC=C(C)C (stereo not given) .
100% (inactive)

----------
# Tested on: BT-549 breast
# TEST SUMMARY: NCI-60 one-dose screen, 48 h (100 = growth as untreated, 0 = no growth, -100 = all killed)
# REPORTED CONDITIONS: 10 µM
The panel holds about 83,000 compounds, 20% with a hit somewhere; the sample as a whole holds those more often.
ASSAY READOUT: growth (%)
Reply numerically in %, unit not repeated.

# count of solved cases: 3
- MOLECULE: "O=C(NCc1ccco1)Nc1c(Cl)cc(Cl)cc1Cl"
  VALUE UNITS: "%"
  RECORDED MEASUREMENT: 96.1
- MOLECULE: "O=C(N/N=C/c1ccccc1O)Nc1nn[nH]n1"
  VALUE UNITS: "%"
  RECORDED MEASUREMENT: 111
- MOLECULE: "Cc1cc2nc(CC(=O)c3cccc([N+](=O)[O-])c3)c(=O)[nH]c2cc1C"
  VALUE UNITS: "%"
  RECORDED MEASUREMENT: 87

Please give the documented growth of O=C(c1ccc(O)cc1)c1ccc(O)cc1
122

Please give the documented growth of Cc1cccc(CO)c1
106

Please give the documented growth of COC(=O)CCCCC1=CCC2C(=O)C=C(O)C2C1 (configuration not stated)
98.7

Please give the documented growth of Cc1ccc(CCCC(=O)O)c(C)c1
101

----------
# System: NCI/ADR-RES ovarian
# TEST SUMMARY: NCI-60 one-dose screen, 48 h (100 = growth as untreated, 0 = no growth, -100 = all killed)
# REPORTED CONDITIONS: 10 µM
Compounds without any hit were thinned out: in the full panel of roughly 83,000, 20% have a hit.
ASSAY READOUT: growth (%)
Reply numerically in %, unit not repeated.

- COMPOUND: "S=c1[nH]ccn1-c1ccccc1Cl"
  TARGET OR SYSTEM: "NCI/ADR-RES ovarian"
  growth [%]: 115

Please give the documented growth of NNc1ccccc1C(=O)O
107

Please give the documented growth of OCC1OC(OC2C(O)C(CO)OC2(CO)OC2OC(CO)C(O)C(O)C2O)C(O)C(O)C1O (configuration not stated)
107

Please give the documented growth of O=C(N/N=C\c1cc(Br)cc(Br)c1O)N/N=C/c1cc(Br)cc(Br)c1O
35.6

Please give the documented growth of O=c1c2ccccc2c(Br)c(Br)c2ccccc12
60.5

Please give the documented growth of CCCC(=O)Nc1ccc2c(c1)CN1C(=O)c3ccccc3C1=N2
99.5

Please give the documented growth of CNS(=O)(=O)c1ccc(Cl)c(Cl)c1
110

----------
Listed next: entries and their corresponding growth.
# Tested on: NCI-H460 lung
# TEST SUMMARY: NCI-60 one-dose screen, 48 h (100 = growth as untreated, 0 = no growth, -100 = all killed)
# REPORTED CONDITIONS: 10 µM
# Procedure: Growth inhibition of the NCI-H460 human Non-Small Cell Lung tumor cell line is measured as a screen for anti-cancer activity. Cells are grown in 96 well plates and exposed to the test compound for 48 hours. Compounds are tested at a single concentration, which is 10^-5 M for most compounds. The reported endpoint is percent growth (GI% or GIPRCNT), where numbers from 0 - 100% represent growth inhibition, and numbers from -100% - 0 represent cell death. […]
About 83,000 compounds went through this panel and 20% of them were active in at least one assay; those are over-represented in the sample as a whole.
Reply numerically in %, unit not repeated.

- COMPOUND: "C#CC(C)(O)c1ccc(Cl)cc1 (configuration not stated)"
  VALUE UNITS: "%"
  growth: 104
- COMPOUND: "Cc1ccc(N)cc1[N+](=O)[O-]"
  VALUE UNITS: "%"
  growth: 109
- COMPOUND: "CC(=O)NCc1cc(C)c(C)cc1C"
  VALUE UNITS: "%"
  growth: 104
- COMPOUND: "O=[N+]([O-])c1ccc(CO)cc1"
  VALUE UNITS: "%"
  growth: 98.7
- COMPOUND: "CCOc1ccc(/C=C/C(=O)c2ccccc2)cc1"
  VALUE UNITS: "%"
  growth: 103

Please give the documented growth of S=c1[nH]ccn1-c1ccccc1Cl
117

Please give the documented growth of Clc1ccc(-c2n[nH]c3c2Cc2ccccc2-3)cc1Cl
105

----------
# Tested on: SNB-19 CNS
# TEST SUMMARY: NCI-60 one-dose screen, 48 h (100 = growth as untreated, 0 = no growth, -100 = all killed)
# REPORTED CONDITIONS: 10 µM
Compounds without any hit were thinned out: in the full panel of roughly 83,000, 20% have a hit.
ASSAY READOUT: growth (%)
Reply numerically in %, unit not repeated.

Please give the documented growth of CC(=O)NCc1cc(C)c(C)cc1C
109

Please give the documented growth of O=[N+]([O-])c1cccc2nsnc12
98.4

Please give the documented growth of CCN(CC)C(=O)/C=C(/C)c1ccccc1
105

Please give the documented growth of O=C(c1ccc(O)cc1)c1ccc(O)cc1
111

Please give the documented growth of CCOC(=O)c1coc(C(=O)OCC)c1C(=O)OCC
112

Please give the documented growth of CC[N+](C)(CC)CCO
97.7

Please give the documented growth of COc1ccc(C(O)c2ccccc2)cc1 (stereo unspecified)
105

Please give the documented growth of CC1CCC(C(=O)O)N1 (stereo unspecified)
102
